system: Nrf2-Keap1 Pathway; experiment: DiscoverRx PathHunter Nrf2-Keap1 nuclear translocation biosensor assay; assay type: cell-based; conditions: agonist mode, 6 hours incubation at room temperature; read-out: Nrf2 activation EC50
Where a name gives a salt, the structure may show the parent alone.
Readout name: pEC50
Numbers only, as −log10 of the molar value.

Observe how each entry below is paired with its result.
[
  {
    "Molecule": "[2H]/C(C(=O)O)=C(/[2H])C(=O)O.[2H]/C(C(=O)OC([2H])([2H])[2H])=C(/[2H])C(=O)OC([2H])([2H])[2H]",
    "Readout name": "pEC50",
    "Value observed": 5.10
  },
  {
    "Molecule": "O=C(O)/C=C/C(=O)O.[2H]C([2H])([2H])OC(=O)/C=C/C(=O)OC([2H])([2H])[2H]",
    "Readout name": "pEC50",
    "Value observed": 5.18
  },
  {
    "Molecule": "[2H]/C(C(=O)OC)=C(/[2H])C(=O)OC",
    "Readout name": "pEC50",
    "Value observed": 5.32
  }
]

# input Endpoint output: pEC50 of COC(=O)/C=C/C(=O)OC [DMF, dimethyl fumarate, reference compound] . Value?
# output 5.27

###

assay: Oral PK at 100 mg/kg in male SD rats; conditions: rat, oral, 100 mg/Kg; in vivo, species not stated for this figure; read-out: half-life of MMF (converted)
Where a name gives a salt, the structure may show the parent alone.
Readout name: half-life

# input Endpoint output: half-life of COC(=O)/C=C/C(=O)O [MMF, monomethyl fumarate] . Value?
# output ~1 h
